This listing pairs compounds with measured max response.
# measurement_description: qHTS Assay for Identifying Gametocytocidal Compounds (AID 743244);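 further: on the % scale 0 is the no-effect control and ±100 the full control effect; actives lower the fluorescent signal which means gametocytes are killed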
# test_context: P. falciparum 3D7 stage III-V gametocytes, alamarBlue, 72 h; active compounds read low
Records with an inconclusive call do not appear. Active and inactive are the calls of the source. The call rests on the fitted dose curve; in most records, active means well fitted curve in the direction sought with a large enough effect; inconclusive means small, poorly fitted or top-dose-only effect, or another doubt; inactive means no such curve, though single readings can be large or run the other way.
readout_type: max response

compound | readout_type | test_result
NCc1cc(=O)[nH]o1 | max response | 24.8% (inactive)
CC1(C)CC/C(=C/c2ccc(Cl)cc2)C1(O)Cn1cncn1 (configuration not stated) | max response | -5.52% (inactive)
O=C(O)Cc1cnc[nH]1 | max response | 3.18% (inactive)
CC1=NN=C(c2ccc(N)cc2)c2cc3c(cc2C1)OCO3 | max response | 7.34% (inactive)
CC(C)(C)C(O)C(Oc1ccc(Cl)cc1)n1cncn1 (configuration not stated) | max response | 12.8% (inactive)
CC(C)Oc1cccc(NC(=O)c2ccccc2C(F)(F)F)c1 | max response | 15.7% (inactive)
c1ccc2sc(C3(N4CCCCC4)CCCCC3)cc2c1 | max response | 6.13% (inactive)

----------
# System: JEG-3
# measurement_description: Primary qHTS to identify gynecologic anti-cancer compounds using libraries of approved drugs and bioactive compounds (AID 1345084); further: nearly all actives have a fitted effect of over 55% in size
# test_context: Gynecologic cancer cell panel viability, ATPlite luminescence, 48 h; series mostly up to 57.5 µM
Inconclusive results are not listed. Calls of active or inactive are those of the source. Calls follow the shape of the dose curve; as a rule, active = well fitted cell-killing curve with a large enough effect; inconclusive = small, poorly fitted or top-dose-only effect, or effect the other way; inactive = flat fitted curve, though single readings scatter.
Labels: YES = active, NO = inactive

molecule | qualitative_label
COCCOCCO | NO
Nc1ccc(Sc2ccc(N)cc2)cc1 | NO
Cc1[nH]nc2ccc(-c3cncc(OC[C@@H](N)Cc4c[nH]c5ccccc45)c3)cc12 | YES
CCCCCCCCCC(CC)c1ccc(S(=O)(=O)O)cc1 (stereo unspecified) | NO
CCNC(=O)CC1N=C(c2ccc(Cl)cc2)c2cc(OC)ccc2-n2c(C)nnc21 (stereo unspecified) | NO
CC(C)Oc1cccc(NC(=O)c2ccccc2C(F)(F)F)c1 | NO
Fc1cc(Br)ccc1CBr | NO
CCC(=O)O[C@@H]1C=C2CCC3C(CCC4(C)C3CC[C@@H]4OC(=O)CC)C2CC1 (stereo partly specified) | NO
O=C(NCC1CCOCC1)c1cnc(Nc2ccc(Cl)cc2Cl)nc1C(F)(F)F | NO
CCOP(=O)(NC(C)C)Oc1ccc(SC)c(C)c1 (stereo unspecified) | NO
C/C=C(/C)C(=O)O[C@H]1C(C)=C2[C@H]([C@@H]1OC(=O)CCCCCCC)[C@@](C)(OC(C)=O)C[C@H](OC(=O)CCC)[C@@]1(O)[C@H]2OC(=O)[C@@]1(C)O | YES
CC(C)N(CCNC(=O)CN1CCCC1=O)C(C)C | NO
S=C(NC1CCCCC1)N1CCC(c2cnc[nH]2)CC1 | NO
C=CCC1=C(C)C(OC(=O)C2C(C=C(C)C)C2(C)C)CC1=O (stereo unspecified) | NO
ClC1=C(Cl)[C@]2(Cl)[C@@H]3[C@@H]4C[C@@H]([C@H]5O[C@@H]45)[C@@H]3[C@@]1(Cl)C2(Cl)Cl | NO
O=S(=O)(O)C(F)(F)C(F)(F)C(F)(F)C(F)(F)F | NO
Nc1ccc([N+](=O)[O-])cc1 | NO
C=CC(=O)NCNC(=O)C=C | NO
COC(C)(C)CCCC(C)C/C=C/C(C)=C/C(=O)OC(C)C (stereo unspecified) | NO
COC(=O)c1cncn1C(C)c1ccccc1 (stereo unspecified) | NO
CCCCC(CC)COC(=O)c1ccccc1C(=O)OCC(CC)CCCC (stereo unspecified) | NO
C1CCC(NC2CCCCC2)CC1 | NO
CC1(N2CCC(n3c([C@@H]4CCCNC4)nc4ccccc43)CC2)CCCCCCC1 | YES
Nc1ccc(Cl)cc1N | NO
O=[N+]([O-])/N=C1\NCCN1Cc1ccc(Cl)nc1 | NO
CC1=C(C(=O)O)N2C(=O)[C@@H](N)[C@H]2SC1 | NO
CCN1CCN(C(=O)Cc2ccc(Nc3ncc(F)c(Nc4ccc(C(=O)Nc5ccccc5Cl)cc4)n3)cc2)CC1 | NO
CC1(C)CC/C(=C/c2ccc(Cl)cc2)C1(O)Cn1cncn1 (stereo unspecified) | NO
CC(N[C@H]1C[C@H]1c1ccccc1)c1ccc2c(c1)OCCO2 (stereo partly specified) | NO
O=[N+]([O-])c1c2ccccc2cc2ccccc12 | NO
CC(C)(C)NC[C@H](O)c1ccc(O)cc1Cl | NO
CC(O)CN1CCN(CC(=O)[O-])CCN(CC(=O)[O-])CCN(CC(=O)[O-])CC1.[Gd+3] (stereo unspecified) | NO
Oc1ccc2c3c1O[C@H]1[C@@H](O)C=C[C@H]4[C@@H](C2)NCC[C@@]341 | NO
CCN(CC)C(=O)c1ccc(C2=CC3(CCNCC3)Oc3cccc(O)c32)cc1 | NO
O=C(N[C@@H](COc1ccc2[nH]c(=O)[nH]c2c1)c1ccccc1)c1cccn(Cc2ccc(F)c(F)c2)c1=O | NO
CCOCCOC(C)=O | NO
CCOC(=O)Nc1ccc(NCc2ccc(F)cc2)cc1N | NO
CN[C@@H](C)[C@H](O)c1ccccc1 | NO
O=C1C=CC[C@@H]2[C@H]3CCCN4CCC[C@@H](CN12)[C@@H]34 | NO
CCC1(CCC(C)C)C(=O)NC(=O)NC1=O | NO
O=[N+]([O-])c1ccc([As](=O)(O)O)cc1 | NO
Cc1ccccc1-n1c(Cn2cnc3c(N)ncnc32)nc2cccc(C)c2c1=O | NO
CC(C)NCC(O)c1ccc([N+](=O)[O-])cc1 (stereo unspecified) | NO
CC[N+]1(CCOC(=O)C(O)(c2ccccc2)c2ccccc2)CCCCC1 | NO
CN1CCN(c2ccc([N+](=O)[O-])c3no[n+]([O-])c23)CC1 | NO
O=[N+]([O-])c1cc([N+](=O)[O-])c2ccccc2c1 | NO
